Parameter pest or weed control at 500 g/ha: see the listing below.
Tested on: giant foxtail (Setaria faberii)
measurement description: Test A preemergence
Format: in vivo
details: Setaria faberi, pre-emergence, 240 h, 500 g ai/ha, preemergence; visual injury rating about 10 d after treatment, 0 to 100 scale (0 no effect, 100 complete control); read-out: Foxtail, Giant plant response rating
Number in %, nothing else.

Some entries whose results are on file:
compound | result units | pest or weed control at 500 g/ha
CCc1cccc([C@H]2CCNC(=O)[C@@H]2C(=O)Nc2cccc(F)c2F)c1 [Compound 1058] | % | 100
CN1C[C@H](c2cc(F)cc(F)c2)[C@@H](C(=O)Nc2ncccc2Cl)C1=O [Compound 1097] | % | 0
Cc1cccc(NC(=O)[C@H]2C(=O)N(C)C[C@@H]2c2ccc(C(F)(F)F)cc2)c1F [Compound 939] | % | 90
CCOc1cccc([C@H]2CN(C)C(=O)[C@@H]2C(=O)Nc2ccc(F)cc2F)c1 [Compound 963] | % | 100
CSc1ccccc1NC(=O)[C@H]1C(=O)N(C)C[C@@H]1c1cc(F)cc(Cl)c1 [Compound 975] | % | 90
O=C1NC[C@H](c2ccc3c(c2)OCO3)[C@H]1C(=O)Nc1ccc(F)cc1F [Compound 1026] | % | 90
COc1ccc([C@H]2CN(C)C(=O)[C@@H]2C(=O)Nc2ccccc2F)cc1C(F)(F)F [Compound 984] | % | 100

Now turn to the next compound.
Write down pest or weed control at 500 g/ha measured for item O=C(Nc1ccccc1F)[C@H]1C(=O)N(C2CC2)CC[C@@H]1c1ccccc1 [Compound 1031] 0

====

Tested on: barnyardgrass (Echinochloa crus-galli)
measurement description: Test G Pre-Emergence Protocol
Assay type: in vivo
details: Echinochloa crus-galli, pre-emergence, 312 h, 15.625 g ai/ha, evaluated after 13 days, read-out: Barnyard grass damage rating (100=total damage to plant; 0=no damage to plant)
Below: a set of entries, each annotated with reported pest or weed control at 15.625 g/ha.
Unit % implied. Number only.

Look up and report measured pest or weed control at 15.625 g/ha for this entry: COc1ccc(OC)c([C@H]2CN(C)C(=O)[C@@H]2C(=O)Nc2ccccc2F)c1 (racemic) 20

// Input: CN1C[C@@H](c2ccc(C(F)(F)F)cc2)[C@H](C(=O)Nc2csc(C(F)(F)F)n2)C1=O (racemic) . Output its pest or weed control at 15.625 g/ha only. 0

Using known records, supply pest or weed control at 15.625 g/ha for CN1C[C@H](c2ccc(C(F)(F)F)cc2)[C@@H](C(=O)Nc2ncc(Cl)cc2Cl)C1=O (racemic) 0

Give pest or weed control at 15.625 g/ha for the following compound: CN1C[C@H](c2ccc3c(c2)CCCC3)[C@@H](C(=O)Nc2cccc(F)c2F)C1=O (racemic) 0

Dear colleague, please send me the reported pest or weed control at 15.625 g/ha for CN1C[C@@H](c2ccc(C(F)(F)F)cc2)[C@H](C(=O)Nc2ccnc(F)c2)C1=O (racemic) when you can. 0

Assign pest or weed control at 15.625 g/ha to the following record: CN1C[C@@H](c2ccnc(C(F)(F)F)c2)[C@H](C(=O)Nc2cccc(F)c2F)C1=O (racemic) 70

Write down pest or weed control at 15.625 g/ha measured for item Cc1cc([C@@H]2CN(C)C(=O)[C@H]2C(=O)Nc2cccc(F)c2F)cnc1Cl (racemic) 40

====

Recorded pest or weed control at 250 g/ha for the following molecules
Tested on: barnyardgrass (Echinochloa crus-galli)
measurement description: Test G Post-Emergence Protocol
Type: in vivo
details: Echinochloa crus-galli, post-emergence, 312 h, 250 g ai/ha, evaluated after 13 days, read-out: damage to plant, Barnyardgrass (100=total damage to plant; 0=no damage to plant)
Hi! Could you send only the number? It should be in %, unit omitted.

molecule | value observed
Cc1cccc(NC(=O)[C@@H]2C(=O)N(C)C[C@H]2c2ccc(C(F)(F)F)cc2)c1Br (racemic) | 60
COc1ccc(CNC(=O)[C@H]2C(=O)N(C)C[C@@H]2c2ccc(C(F)(F)F)cc2)c(OC)c1 (racemic) | 20
CN1C[C@H](c2ccc(C(F)(F)F)cc2)[C@@H](C(=O)Nc2nccc(C(F)(F)F)c2F)C1=O (racemic) | 0

Continue with the molecule presented below.
Name the recorded pest or weed control at 250 g/ha of the molecule listed here: CN1C[C@H](c2ccc(C(F)(F)F)cc2)[C@@H](C(=O)Nc2ncccc2[N+](=O)[O-])C1=O (racemic) 0

====

System: giant foxtail (Setaria faberi)
measurement description: Test G Post-Emergence Protocol
Assay type: in vivo
details: Setaria faberi, post-emergence, 312 h, 250 g ai/ha, evaluated after 13 days, 100=total damage to plant, 0=no damage to plant, read-out: Foxtail, Giant damage rating
parameter: pest or weed control at 250 g/ha

Example entries begin here.
compound | parameter | value observed
CN1C[C@H](c2cccc(C(F)F)c2)[C@@H](C(=O)Nc2cnccc2C(F)(F)F)C1=O (racemic) | pest or weed control at 250 g/ha | 80%
CCOc1cc(C2CN(C)C(=O)C2C(=O)Nc2cccc(F)c2F)ccc1OC (stereo not shown) | pest or weed control at 250 g/ha | 80%
CN1C[C@H](c2ccc(C(F)(F)F)cc2)[C@@H](C(=O)Nc2ccc[n+]([O-])c2F)C1=O (racemic) | pest or weed control at 250 g/ha | 10%

Name the recorded pest or weed control at 250 g/ha of the compound listed here: COC(=O)c1cc([C@H]2CN(C)C(=O)[C@@H]2C(=O)Nc2cccc(F)c2F)ccc1F (racemic) 20%

====

System: giant foxtail (Setaria faberii)
measurement description: Test A preemergence
Format: in vivo
details: Setaria faberi, pre-emergence, 240 h, 500 g ai/ha, preemergence; 0 to 100 scale (0 no effect, 100 complete control); read-out: Plant response rating, Foxtail, Giant
Excerpt: […]
Recorded pest or weed control at 500 g/ha values for a group of molecules are listed next.
Provide only the numeric value, understood in %.

Below: 2 molecules and their reported pest or weed control at 500 g/ha.
molecule | pest or weed control at 500 g/ha [%]
CN1C[C@H](c2cccc(C(F)(F)F)c2)[C@@H](C(=O)Nc2ccc(F)c(F)c2F)C1=O | 100
CN1C[C@H](c2ccccc2)[C@](C)(C(=O)Nc2ccccc2F)C1=O (racemic) | 0

For the molecule O=C1NCC(c2c(Cl)cccc2Cl)C1C(=O)Nc1ccccc1F (stereo not shown) , report pest or weed control at 500 g/ha. 0

Quick one: give measured pest or weed control at 500 g/ha for `Cc1ccc([C@H]2CN(C)C(=O)[C@@H]2C(=O)Nc2ccccc2F)cc1Cl` 90

====

Tested on: barnyardgrass (Echinochloa crus-galli)
measurement description: Test G Post-Emergence Protocol
Assay type: in vivo
details: Echinochloa crus-galli, post-emergence, 312 h, 250 g ai/ha, evaluated after 13 days, 100=total damage to plant, 0=no damage to plant, read-out: Barnyardgrass damage rating
The label is Satisfied for pest or weed control at 250 g/ha below 80% and Not satisfied for pest or weed control at 250 g/ha equal to or exceeding 80%.

Here are 5 molecules together with their reported answers.
molecule | label
Cc1nc(F)ccc1NC(=O)[C@@H]1C(=O)N(C)C[C@H]1c1ccc(C(F)(F)F)cc1 (racemic) | Satisfied
CN1C[C@H](c2cccc(C(C)(C)C#N)c2)[C@@H](C(=O)Nc2ccccc2S(C)(=O)=O)C1=O (racemic) | Satisfied
CN1C[C@H](c2ccc(C(F)(F)F)cc2)[C@@H](C(=O)Nc2cccnc2[N+](=O)[O-])C1=O (racemic) | Satisfied
COc1ccc(C2CN(C)C(=O)C2C(=O)Nc2cccc(F)c2F)cc1C (stereo not drawn) | Not satisfied
Cc1c[nH]nc1NC(=O)[C@@H]1C(=O)N(C)C[C@H]1c1ccc(C(F)(F)F)cc1 (racemic) | Satisfied

Is pest or weed control at 250 g/ha of CC(C)Oc1cc(F)cc(C2CN(C)C(=O)C2C(=O)Nc2cccc(F)c2F)c1 (stereo not drawn) strictly below 80%? Not satisfied

Quick check: does CN1C[C@@H](c2ccc(C(F)(F)F)cc2)[C@H](C(=O)Nc2n[nH]cc2Cl)C1=O (racemic) have pest or weed control at 250 g/ha under 80%? Satisfied

Item CN1C[C@H](c2ccc(C(F)(F)F)cc2)[C@@H](C(=O)Nc2cccnc2S(C)(=O)=O)C1=O (racemic) : pest or weed control at 250 g/ha beneath 80%, strictly? Satisfied

# check: pest or weed control at 250 g/ha < 80% for CN1C[C@H](c2cccc(C(F)(F)F)c2)[C@@H](C(=O)Nc2cnccc2[S+](C)[O-])C1=O (mixture of isomers) Satisfied

Please let me know if COCCOc1cccc([C@@H]2CN(C)C(=O)[C@H]2C(=O)Nc2cccc(F)c2C)c1 (racemic) shows pest or weed control at 250 g/ha below 80%. Satisfied

Is 80% strictly greater than the molecule's reported pest or weed control at 250 g/ha? molecule: Cc1c(F)cccc1NC(=O)[C@@H]1C(=O)N(C)C[C@H]1c1cc(Cl)c(F)c(Cl)c1 (racemic) Satisfied

Decide: pest or weed control at 250 g/ha of COc1cc(Cl)cc(C2CN(C)C(=O)C2C(=O)Nc2cccc(F)c2F)c1 (stereo not drawn) strictly below 80%? Not satisfied

Please determine if CCOc1cc([C@@H]2CN(C)C(=O)[C@H]2C(=O)Nc2cccc(F)c2C)ccc1C(F)(F)F (racemic) is below 80% in terms of pest or weed control at 250 g/ha. Satisfied

Consider the molecule CN1C[C@@H](c2ccc(C(F)(F)F)cc2)[C@H](C(=O)Nc2cnc(Cl)cn2)C1=O (racemic) . Is its pest or weed control at 250 g/ha strictly less than 80%? Satisfied
